Test system: JAK2(JH1domain-catalytic)
Conditions: concentration: 1 μM, replicates: in singlicate; n = 1
Overview of recorded %Inh for various compounds
Use % as the unit, but write only the number.

Illustrative cases are given below, each with its answer.
QUERY: Given Fc1ccc(-c2nc[nH]c2-c2ccncc2)cc1 , report its %Inh on JAK2(JH1domain-catalytic).
RESULT: 27

QUERY: Given O=c1cc(N2CCOCC2)nc2n(Cc3ccccc3F)ccn12 , report its %Inh on JAK2(JH1domain-catalytic).
RESULT: 0

QUERY: Given CC(=O)c1c(C)c2cnc(Nc3ccc(N4CCNCC4)cn3)nc2n(C2CCCC2)c1=O , report its %Inh on JAK2(JH1domain-catalytic).
RESULT: 0

QUERY: Given Cn1cncc1C(=O)NC1CCN(c2ccnc(Nc3ccc(F)cc3)n2)C1 (stereo not drawn) , report its %Inh on JAK2(JH1domain-catalytic).
RESULT: 100

QUERY: Given Cc1ccc(NC(=O)Nc2ccccc2)cc1-c1ccc(C(=O)Nc2ccncc2)cc1 , report its %Inh on JAK2(JH1domain-catalytic).
RESULT: 0

QUERY: Given CS(=O)(=O)Cc1ccc(Nc2nccc(-c3c(-c4cccc(NC(=O)C5CCCCC5)c4)nn4ncccc34)n2)cc1 , report its %Inh on JAK2(JH1domain-catalytic).
RESULT: 16

***
QUERY: Given COC(=O)c1cccc(NC(=O)NC2CCN(c3ccnc(Nc4ccc(F)cc4)n3)C2)c1 (stereo not drawn) , report its %Inh on JAK2(JH1domain-catalytic).
RESULT: 0

QUERY: Given CNc1cc(-c2ccc3c(N)n[nH]c3c2)nc(N)n1 , report its %Inh on JAK2(JH1domain-catalytic).
RESULT: 4

QUERY: Given Cc1c(Cn2c3ccccc3n3c(=O)cc(N4CCOCC4)nc23)cccc1C(F)(F)F , report its %Inh on JAK2(JH1domain-catalytic).
RESULT: 35

QUERY: Given COc1nccc(-c2c(-c3ccc(F)cc3)ncn2CCCN2CCOCC2)n1 , report its %Inh on JAK2(JH1domain-catalytic).
RESULT: 4

QUERY: Given COc1ccc(CSc2nnc(-c3ccc4ncsc4c3)o2)cc1C(F)(F)F , report its %Inh on JAK2(JH1domain-catalytic).
RESULT: 0

###

Overview of recorded %Inh for various compounds
Tested on: NEK3
Conditions: concentration: 1 μM, replicates: in singlicate; n = 1

Illustrative cases are given below, each with its answer.
QUERY: Please report the measured %Inh for Fc1ccc(-c2nc[nH]c2-c2ccncc2)cc1
RESULT: 11%

QUERY: Please report the measured %Inh for Fc1ccc(-c2nn3cccc(F)c3c2-c2ccncc2)cc1
RESULT: 0%

QUERY: Please report the measured %Inh for CCCCc1nn2ncccc2c1-c1ccnc(NC2CC2)n1
RESULT: 0%

QUERY: Please report the measured %Inh for CNc1nc(-c2ccc3c(N)n[nH]c3c2)cc(N2C[C@@H](C(=O)Nc3ccccc3)CC[C@H]2C)n1
RESULT: 0%

QUERY: Please report the measured %Inh for COc1cc2ncnc(Nc3cccc(Br)c3)c2cc1OC.Cl
RESULT: 6%

QUERY: Please report the measured %Inh for COc1ccc(-c2coc3ccc(-c4nnc(C)o4)cc23)cc1
RESULT: 21%

***
QUERY: Please report the measured %Inh for O=C(Nc1n[nH]c2nc(-c3cccs3)c(Br)cc12)C1CCCC1
RESULT: 5%

QUERY: Please report the measured %Inh for O=c1cc(N2CCOCC2)nc2n(Cc3ccccc3F)ccn12
RESULT: 0%

QUERY: Please report the measured %Inh for O=C(Nc1n[nH]c2nc(-c3ccco3)c(Br)cc12)C1CCN(Cc2ccccc2)C1.O=C(O)[C@H](O)[C@@H](O)C(=O)O (stereo not drawn)
RESULT: 47%

###

Tested on: HIPK4
Conditions: concentration: 1 μM, replicates: in singlicate; n = 1
PROPERTY_NAME: %Inh (%)
Use % as the unit, but write only the number.

Illustrative cases are given below, each with its answer.
QUERY: Please report the measured %Inh for Fc1ccc(-c2nc3n(c2-c2ccncc2)CCS3)cc1
RESULT: 0

QUERY: Please report the measured %Inh for COc1cccc(C2=C(Nc3cc(Cl)c(O)c(Cl)c3)C(=O)NC2=O)c1
RESULT: 0

QUERY: Please report the measured %Inh for Cc1ccc(NC(=O)Nc2ccc(Cl)c(C(F)(F)F)c2)cc1-c1ccc(C(=O)Nc2ccncc2)cc1
RESULT: 8

QUERY: Please report the measured %Inh for COc1ccc(Nc2nccc(N3CCC(NC(=O)c4cc5ccccc5s4)C3)n2)cc1 (stereo not drawn)
RESULT: 0

QUERY: Please report the measured %Inh for NS(=O)(=O)c1cccc(N/C=C2\C(=O)Nc3ccc(S(=O)(=O)Cc4c(Cl)cccc4Cl)cc32)c1
RESULT: 0

***
QUERY: Please report the measured %Inh for CNc1nc(-c2ccc3c(N)n[nH]c3c2)cc(N2C[C@@H](C(=O)NC3CCCCC3)OC[C@H]2C)n1
RESULT: 0

QUERY: Please report the measured %Inh for Cc1ccc(NC(=O)Nc2ccccc2)cc1-c1ccc(C(=O)Nc2ccncc2)cc1
RESULT: 10

QUERY: Please report the measured %Inh for Cc1nccc(-c2c(-c3ccc(F)cc3)ncn2CCCN2CCOCC2)n1.Cl
RESULT: 50

QUERY: Please report the measured %Inh for CNc1cc(-c2ccc3c(N)n[nH]c3c2)nc(N)n1
RESULT: 14

###

Test system: HASPIN
Construct: gene GSG2
Conditions: concentration: 1 μM, replicates: in singlicate; n = 1
Overview of recorded %Inh for various compounds
Use % as the unit, but write only the number.

Illustrative cases are given below, each with its answer.
QUERY: Please report the measured %Inh for CC(C)c1ccc(O)cc1Nc1ccnc2ccc(C(F)(F)F)cc12 [GW482059]
RESULT: 3

QUERY: Please report the measured %Inh for COc1ccc(CSc2nnc(-c3ccc4ncsc4c3)o2)cc1C(F)(F)F
RESULT: 45

QUERY: Please report the measured %Inh for Cc1ccc(NC(=O)Nc2ccc(Cl)c(C(F)(F)F)c2)cc1-c1ccc(C(=O)Nc2ccncc2)cc1 [GSK1398470]
RESULT: 10

***
QUERY: Please report the measured %Inh for Cc1ccccc1Cn1ccn2c(=O)cc(N3CCOCC3)nc12 [GSK2269905]
RESULT: 0

QUERY: Please report the measured %Inh for COc1ccc(CSc2nnc(-c3ccc4nccn4c3)o2)cc1C(F)(F)F
RESULT: 32

QUERY: Please report the measured %Inh for Fc1ccc(-c2nn3cccc(F)c3c2-c2ccncc2)cc1 [GW475620]
RESULT: 5

QUERY: Please report the measured %Inh for CCn1c(-c2ccccc2)nc2cnccc21 [SB-733416]
RESULT: 0

QUERY: Please report the measured %Inh for CSc1ccc(-c2nc3n(c2-c2ccncc2)CCC3)cc1 [SKF-105561]
RESULT: 35

###

Test system: CAMK2D
Conditions: concentration: 1 μM, replicates: in singlicate; n = 1
PROPERTY_NAME: %Inh (%)
Use % as the unit, but write only the number.

QUERY: Please report the measured %Inh for COC(=O)c1cccc(NC(=O)NC2CCN(c3ccnc(Nc4ccc(OC)cc4)n3)C2)c1 (stereo not drawn) [GSK1379746]
RESULT: 0

QUERY: Please report the measured %Inh for CN1c2ccc(-c3ccc(C(N)=O)cc3)cc2-c2[nH]ncc2S1(=O)=O
RESULT: 18

QUERY: Please report the measured %Inh for Cc1cccc2c(-c3ccncn3)c(-c3ccc(F)cc3)nn12 [GW515532]
RESULT: 0

QUERY: Please report the measured %Inh for O=c1cc(N2CCOCC2)nc2n(Cc3ccccc3F)ccn12 [GSK2297428]
RESULT: 7

QUERY: Please report the measured %Inh for COc1ccc(Nc2nccc(N3CCC(NC(=O)C(C)c4ccc(Cl)cc4)CC3)n2)cc1 (stereo not drawn) [GSK1379812]
RESULT: 14

QUERY: Please report the measured %Inh for c1ccc(-c2ccnc3[nH]ccc23)cc1 [SB-693578]
RESULT: 31

QUERY: Please report the measured %Inh for CC[C@@H]1CO[C@H](C(=O)Nc2ccccc2)CN1c1cc(-c2ccc3c(N)n[nH]c3c2)nc(NC)n1 [GSK2376236]
RESULT: 21

QUERY: Please report the measured %Inh for FC(F)(F)c1ccccc1-c1cc(-c2c[nH]nc2-c2ccccn2)ccn1 [GW679396]
RESULT: 9

***
QUERY: Please report the measured %Inh for CC(C)c1cc(-c2ccc3c(N)n[nH]c3c2)nc(N)n1 [GSK2250882]
RESULT: 8

###

Tested on: DMPK2;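 note: kd values determined as follow-up on hits from a single-replicate KINOMEscan panel screen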
Construct: gene CDC42BPG
Overview of recorded Kd for various molecules
Use nM as the unit, but write only the number.

QUERY: Given Fc1ccc(-c2nn3cccc(F)c3c2-c2ccncc2)cc1 , report its Kd on DMPK2.
RESULT: 1000

Next, consider the following molecule.
QUERY: Given Fc1ccc(-c2nc3n(c2-c2ccncc2)CCS3)cc1 , report its Kd on DMPK2.
RESULT: 1200
